Attribute: pIC50
- test-system: Tyrosine-protein kinase ITK/TSK (Homo sapiens)
- Sequence (Q08881 whole entry): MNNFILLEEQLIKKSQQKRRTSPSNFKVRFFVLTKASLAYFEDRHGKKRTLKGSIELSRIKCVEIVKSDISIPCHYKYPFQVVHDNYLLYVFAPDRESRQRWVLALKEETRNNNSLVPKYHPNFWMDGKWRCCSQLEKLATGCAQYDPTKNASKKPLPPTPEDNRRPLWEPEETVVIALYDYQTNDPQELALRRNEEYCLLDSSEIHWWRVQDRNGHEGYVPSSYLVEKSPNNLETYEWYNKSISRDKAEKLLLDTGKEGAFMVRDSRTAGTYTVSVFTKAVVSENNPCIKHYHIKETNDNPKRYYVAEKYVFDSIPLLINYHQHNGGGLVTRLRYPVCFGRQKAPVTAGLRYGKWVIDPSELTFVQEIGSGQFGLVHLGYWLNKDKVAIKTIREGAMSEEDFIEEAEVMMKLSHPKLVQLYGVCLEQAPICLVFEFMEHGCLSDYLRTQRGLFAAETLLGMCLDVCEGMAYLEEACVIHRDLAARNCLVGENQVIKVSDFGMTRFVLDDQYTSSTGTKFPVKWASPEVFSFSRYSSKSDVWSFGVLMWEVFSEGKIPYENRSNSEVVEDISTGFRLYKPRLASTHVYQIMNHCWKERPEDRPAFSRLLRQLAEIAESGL
In plain terms, pIC50 is the concentration in mol/L turned into minus its base-10 logarithm.

>>> observed_measurement("C=CC(=O)N1CCC[C@@H](c2nn(-c3ccc(Oc4ccccc4)cc3)c3c(N)nccc23)C1 [US11739090, Compound 7A]")
7.37

Form field: reported pIC50 of C=CC(=O)N1CCC[C@H](c2nn(-c3ccc(Oc4ccccc4)cc3)c3c(N)nccc23)C1 [US11739090, Compound 7B] 5.84
